# Test system: H1975 lung adenocarcinoma cells
# method_notes: MTT assay, H1975 cells
# Type: cell-based
# run_parameters: Homo sapiens, NCI-H1975, 72 h, read-out: IC50 (μM) H1975
Threshold-based label: IC50 under 6 µM gives yes, IC50 not under 6 µM gives no.

O=C(NCCN1CCCCC1)c1cc2c3ccccc3n3c(=O)ccc(n1)c23; yes
CN1CCN(CCNC(=O)c2cc3c4ccccc4n4c(=O)ccc(n2)c34)CC1; yes
CN(C)CCCNC(=O)c1cc2c3ccccc3n3c(=O)ccc(n1)c23; no
CN1CCN(C2CCN(c3ccc(NC(=O)c4cc5c6ccccc6n6c(=O)ccc(n4)c56)cc3)CC2)CC1; no
O=c1ccc2nccc3c4ccccc4n1c23 [CO, Canthin-6-one, reference compound]; no

For CN(C)CCNC(=O)c1cc2c3ccccc3n3c(=O)ccc(n1)c23 , is the recorded IC50 below the cut-off of 6 µM? no

For CN1CCC(NC(=O)c2cc3c4ccccc4n4c(=O)ccc(n2)c34)CC1 , is the recorded IC50 below the cut-off of 6 µM? yes

For CCN(CC)CCCC(C)NC(=O)c1cc2c3ccccc3n3c(=O)ccc(n1)c23 (centres unmarked) , is the recorded IC50 below the cut-off of 6 µM? yes
